Parameter EC50: see the listing below.
TARGET ENTITY: GPR40 (Homo sapiens, UniProt O14842)
Construct: expressed in transfected cells; host or cells: HEK293 cells stably expressing GPR40 (Hygromycin selection)
Sequence (O14842 whole entry): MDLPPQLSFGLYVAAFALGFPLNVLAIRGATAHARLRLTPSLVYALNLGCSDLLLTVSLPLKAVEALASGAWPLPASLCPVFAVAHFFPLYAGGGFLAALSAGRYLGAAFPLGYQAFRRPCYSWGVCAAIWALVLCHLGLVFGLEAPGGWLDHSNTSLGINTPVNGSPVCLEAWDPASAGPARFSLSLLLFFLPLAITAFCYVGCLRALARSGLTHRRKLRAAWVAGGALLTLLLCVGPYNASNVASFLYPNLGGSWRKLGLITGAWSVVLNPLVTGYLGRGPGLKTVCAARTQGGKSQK
TEST SUMMARY: IP1 accumulation assay in HEK293 cells stably expressing GPR40
Type: cell-based
RECORDED CONDITIONS: IP1 accumulation, HEK293 cells stably expressing GPR40, 2 hours at 37° C., % effect relative to AMG-1638; table of Biological Example 1

Answered cases to consult:
>  <COMPOUND>
C[C@H](C(=O)O)[C@H](c1ccc2c(c1)O[C@@H](C1CCN(Cc3cc(-n4cc(COCCOCCOCCOCC(=O)NCC[N+](C)(CCC(=O)NCCN)CCC(=O)NCCN)nn4)ccc3OC(F)(F)F)CC1)CC2)C1CC1 [Example 175]

>  <EC50>
> 10 µM

$$$$
>  <COMPOUND>
COc1ccc(F)c(-c2ccc(COc3cccc([C@@H](CC(=O)O)C4CC4)c3)cc2CC(C)(C)Cn2cc(CCCCCCCCCC(=O)NCCCN(CC(=O)O)CC(=O)O)nn2)c1 [Example 104]

>  <EC50>
> 10 µM

$$$$

Please look at the following compound next.
Let me know recorded EC50 for COc1ccc(F)c(-c2ccc(COc3cccc([C@@H](CC(=O)O)C4CC4)c3)cc2CC(C)(C)Cn2cc(COCCOCCOCCOCCOCC(=O)NCCN(CCC(=O)NCCN)CCC(=O)NCCN)nn2)c1 [Example 167] , thanks.
> 10 µM

---

TARGET ENTITY: GPR40 (Homo sapiens, UniProt O14842)
Construct: expressed in transfected cells; host or cells: HEK293 cells stably expressing GPR40 (Hygromycin selection)
TEST SUMMARY: IP1 accumulation assay in HEK293 cells stably expressing GPR40
Type: cell-based
RECORDED CONDITIONS: IP1 accumulation, HEK293 cells stably expressing GPR40, 2 hours at 37° C., % effect relative to AMG-1638; table of Biological Example 1
MEASUREMENT KIND: pEC50
Hey, just a heads up that pEC50 is the negative log base 10 of the concentration in molar.

Answered cases to consult:
>  <MOLECULE>
COc1ccc(C(=O)N(CC(C)(C)CCCCCCn2cc(CCCCCCCCC(=O)NCCC[N+](C)(CC(=O)[O-])CC(=O)O)nn2)c2cccc(C)n2)c(N2CCC(COc3cc([C@@H](CC(=O)O)C4CC4)ccn3)CC2)c1 (some centres unmarked)

>  <pEC50>
7.69

$$$$
>  <MOLECULE>
COc1ccc(C(=O)N(CC(C)(C)CCCCCCCCCCCCCCCCCCCC(=O)NCC[N+](C)(CC(=O)NCCN)CC(=O)NCCN)c2cccc(C)n2)c(N2CCC(COc3cc([C@@H](CC(=O)O)C4CC4)ccn3)CC2)c1

>  <pEC50>
9.42

$$$$
>  <MOLECULE>
C[C@H](C(=O)O)[C@H](c1ccc2c(c1)O[C@@H](C1CCN(Cc3cc(-n4cc(CCCCCCCCCCCCC(=O)NCCN(CCC(=O)NCCN)CCC(=O)NCCN)nn4)ccc3OC(F)(F)F)CC1)CC2)C1CC1

>  <pEC50>
8.26

$$$$
>  <MOLECULE>
COc1ccc(C(=O)N(CC(C)(C)CCn2cc(CCCCCCCCCCCCCCCCCC(=O)NCCCN(C)CC(=O)NCCN)nn2)c2cccc(C)n2)c(N2CCC(COc3cc([C@@H](CC(=O)O)C4CC4)ccn3)CC2)c1

>  <pEC50>
10.15

$$$$
>  <MOLECULE>
COc1ccc(F)c(-c2ccc(COc3cccc([C@@H](CC(=O)O)C4CC4)c3)cc2CC(C)(C)Cn2cc(CCCCCCCCCCCCCCCC(=O)NCC[N+](C)(CCC(=O)NCCN)CCC(=O)NCCN)nn2)c1

>  <pEC50>
8.82

$$$$
>  <MOLECULE>
COc1ccc(F)c(-c2ccc(COc3cccc([C@@H](CC(=O)O)C4CC4)c3)cc2C(C)(C)c2cn(CCCCCCCCCC(=O)NCCN(CCC(=O)NCCN)CCC(=O)NCCN)nn2)c1

>  <pEC50>
5.44

$$$$

Let me know recorded pEC50 for COc1ccc(F)c(-c2ccc(COc3cccc([C@@H](CC(=O)O)C4CC4)c3)cc2OC(C)(C)Cn2cc(CCCCCCCCCCCCCCC(=O)NCC[N+](C)(CCC(=O)NCCN)CCC(=O)NCCN)nn2)c1 , thanks.
8.07

Let me know recorded pEC50 for C[C@H](C(=O)O)[C@H](c1ccc2c(c1)O[C@@H](C1CCN(Cc3cc(-n4cc(CCCCCCCCCCCCC(=O)NCC[N+](C)(CCC(=O)NCCN)CCC(=O)NCCN)nn4)ccc3OC(F)(F)F)CC1)CC2)C1CC1 , thanks.
8.02
